read-out: Low-density lipoprotein receptor (LDLR), LDLR (gene 3949); assay: BSK_CASM3C_LDLR: BioMAP Diversity Plus: CASM3C Assay for Low-density lipoprotein receptor (LDLR) Biomarker Activity (AID 2283045); settings: primary human coronary artery smooth muscle cells; actives raise or lower the signal;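 further: LDLR protein level on the cell surface quantified by ELISA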
The source made the active and inactive calls. How the source made its calls: active means hit-call score of the fitted dose curve at least 0.9, where 1 is the maximum; inactive means score below 0.9.
Could you please pick one outcome from this set? y for active, n for inactive

Check out these entries, answers already filled in.
>>> df
                          molecule  classification
0  CCCCOCCOP(=O)(OCCOCCCC)OCCOCCCC               n
1            COP(=O)(CCC(=O)NCO)OC               n
2               CCOP(=S)(OCC)SCSCC               n
3                  ClC(Cl)c1ccccc1               n

q: Hi, sorry to bother you, what did the test record for "Cc1ccc([N+](=O)[O-])cc1C" ?
a: n

q: Hi, sorry to bother you, what did the test record for "N#Cc1cc([N+](=O)[O-])ccc1N" ?
a: n

q: Hi, sorry to bother you, what did the test record for O=P1(N(CCCl)CCCl)NCCCO1 (centres undefined) ?
a: n

q: Hi, sorry to bother you, what did the test record for "C=CC(=O)OCC(CC)(COC(=O)C=C)COC(=O)C=C" ?
a: n

q: Hi, sorry to bother you, what did the test record for "OCC(F)(F)OC(F)(F)C(F)(F)OC(F)(F)CO" ?
a: n

q: Hi, sorry to bother you, what did the test record for "CC(C)(C)c1ccc(O)cc1" ?
a: n

====

test: Tanguay_ZF_120hpf_MUSC: Oregon State University Tanguay Lab 120 Hour Post-fertilization zebrafish Assay for Muscle Malformation (AID 2284401)
Calls of active or inactive are those of the source. The calls were made as follows: active = hit-call score of the fitted dose curve at least 0.9, where 1 is the maximum; inactive = score below 0.9.
Could you please pick one outcome from this set? Yes (active), No (inactive)

Check out these entries, answers already filled in.
>>> print(df.to_string())
                                  compound  classification
0          O=C(O)C=CC(F)(C(F)(F)F)C(F)(F)F              No
1  CC(O)C(F)(F)C(F)(F)F (stereo not given)              No
2                   C=CC(=O)OCC(F)(F)C(F)F             Yes

q: Hi, sorry to bother you, what did the test record for "OCC(F)(F)OC(F)(F)C(F)(F)OC(F)(F)C(F)(F)OC(F)(F)CO" ?
a: Yes

q: Hi, sorry to bother you, what did the test record for O=C(O)C(F)(OC(F)(F)C(F)(F)C(F)(F)F)C(F)(F)F (stereo not given) ?
a: No

q: Hi, sorry to bother you, what did the test record for "OCC(F)(F)OC(F)(F)C(F)(F)OC(F)(F)C(F)(F)OC(F)(F)F" ?
a: No

q: Hi, sorry to bother you, what did the test record for "OCC(F)(F)OC(F)(F)C(F)(F)OC(F)(F)CO" ?
a: No

q: Hi, sorry to bother you, what did the test record for COC(=O)C(F)(F)C(F)(F)OC(F)(C(F)(F)F)C(F)(F)OC(F)=C(F)F (stereo not given) ?
a: No

q: Hi, sorry to bother you, what did the test record for "O=C(O)C(F)(F)OC(F)(F)C(F)(F)OC(F)(F)C(=O)O" ?
a: No

q: Hi, sorry to bother you, what did the test record for "NC(=O)C(F)(F)C(F)(F)F" ?
a: No

====

read-out: matrix metalloproteinase-3 (MMP3), MMP3 (gene 4314); test: LTEA_HepaRG_MMP3: Life Technologies and Expression Analysis (LTEA) Assay for matrix metalloproteinase-3 (MMP3) using HepaRG (AID 2283519); settings: mRNA level, 48 h; actives raise or lower the signal
The source made the active and inactive calls. Rule for the calls: active = hit-call score of the fitted dose curve at least 0.9, where 1 is the maximum; inactive = score below 0.9.
Could you please pick one outcome from this set? YES for active, NO for inactive

>>> df
                           molecule  classification
0                CCCCCCCc1ccc(O)cc1              NO
1  c1ccc(OP(Oc2ccccc2)Oc2ccccc2)cc1              NO
2                CC(C)(C)OOC(C)(C)C              NO
3                   ClC(Cl)c1ccccc1              NO
4          CCOC(=O)c1ccccc1C(=O)OCC              NO
5                     Nc1ccc(Cl)cc1              NO

q: Hi, sorry to bother you, what did the test record for "ClC(Cl)(Cl)c1ccccc1" ?
a: NO

q: Hi, sorry to bother you, what did the test record for "c1nc[nH]n1" ?
a: YES

q: Hi, sorry to bother you, what did the test record for CCC1(c2ccccc2)C(=O)N=C(O)NC1=O (stereo not drawn) ?
a: NO

q: Hi, sorry to bother you, what did the test record for "O=C(O)C(Cl)Cl" ?
a: NO

q: Hi, sorry to bother you, what did the test record for "CSC(C)(C)C=NO" ?
a: NO

q: Hi, sorry to bother you, what did the test record for "CN(C)C(=O)Cl" ?
a: NO

q: Hi, sorry to bother you, what did the test record for "O=P(Oc1ccccc1)(Oc1ccccc1)Oc1ccccc1" ?
a: NO

q: Hi, sorry to bother you, what did the test record for "Cc1cccc(N)c1" ?
a: NO

q: Hi, sorry to bother you, what did the test record for O=C(O)C1C(C(=O)O)C2(Cl)C(Cl)=C(Cl)C1(Cl)C2(Cl)Cl (stereo not drawn) ?
a: NO

====

target: human Dopamine Transporter (DAT), SLC6A3 (gene 6531) (UniProt Q01959); assay: NVS_TR_hDAT: NovaScreen (NVS) Transporter Assay for human Dopamine Transporter (DAT) (AID 2283374);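 further: activity means loss of bound radioligand signal relative to DMSO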
Sequence (Q01959 whole entry, looked up): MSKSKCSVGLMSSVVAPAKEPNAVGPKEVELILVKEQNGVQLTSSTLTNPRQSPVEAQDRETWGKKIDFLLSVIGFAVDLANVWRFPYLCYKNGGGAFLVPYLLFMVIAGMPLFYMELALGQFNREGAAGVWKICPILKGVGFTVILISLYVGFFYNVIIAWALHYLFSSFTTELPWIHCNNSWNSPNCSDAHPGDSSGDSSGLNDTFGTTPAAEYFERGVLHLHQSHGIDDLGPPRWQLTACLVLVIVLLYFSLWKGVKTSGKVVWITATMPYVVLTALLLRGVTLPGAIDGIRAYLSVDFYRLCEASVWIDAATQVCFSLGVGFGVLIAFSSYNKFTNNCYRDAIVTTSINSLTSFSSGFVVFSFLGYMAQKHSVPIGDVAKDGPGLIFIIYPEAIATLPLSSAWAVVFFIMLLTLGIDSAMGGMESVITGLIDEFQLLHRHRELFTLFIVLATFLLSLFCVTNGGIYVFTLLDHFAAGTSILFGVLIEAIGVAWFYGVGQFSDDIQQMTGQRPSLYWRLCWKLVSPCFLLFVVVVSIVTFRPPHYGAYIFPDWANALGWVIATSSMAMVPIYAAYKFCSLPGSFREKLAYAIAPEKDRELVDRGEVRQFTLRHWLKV
Results filed as inconclusive are left out. Activity calls are given as the source filed them. Rule for the calls: active = hit-call score of the fitted dose curve at least 0.9, where 1 is the maximum; inconclusive = response in the unintended direction; inactive = score below 0.9.
QUANTITY_NAME: AC50

>>> df
                    smiles_code  quantity_name         obs_value
0  O=[N+]([O-])c1ccc(Cl)c(Cl)c1           AC50          inactive
1     CC(=O)c1ccc(-c2ccccc2)cc1           AC50  10.9 µM (active)
2                 CSC(C)(C)C=NO           AC50          inactive
3     CC(C)Nc1ccc(Nc2ccccc2)cc1           AC50  1.69 µM (active)

With those in mind, consider the next molecule.
q: Answer with the recorded AC50 of "CCC(C)(C)c1ccc(O)cc1" only.
a: 10 µM (active)

====

Assay: Tanguay_ZF_120hpf_SOMI_legacy: (Legacy) Oregon State University Tanguay Lab 120 Hour Post-fertilization zebrafish Assay for Somite Malformation (AID 2283647)
Protocol: Tanguay_ZF_120hpf_legacy is a whole embryo, multiplexed endpoint assay using zebrafish larvae exposed for 120 hours post fertilization on a 96-well plate.Tanguay_ZF_120hpf_SOMI_legacy is one of one assay component(s) measured or calculated from the Tanguay_ZF_120hpf_legacy assay. […] This assay endpoint, Tanguay_ZF_120hpf_SOMI_legacy, was analyzed in the positive analysis fitting direction relative to DMSO as the negative control and baseline of activity. […]
Records with an inconclusive call do not appear. Activity calls are given as the source filed them. The calls were made as follows: active = hit-call score of the fitted dose curve at least 0.9, where 1 is the maximum; inconclusive = response in the unintended direction; inactive = score below 0.9.
Could you please pick one outcome from this set? YES = active, NO = inactive

Check out these entries, answers already filled in.
>>> df
                                   compound  classification
0  CC(Cc1ccc(OCC(=O)O)cc1)NCC(O)c1csc(C(F)(F)F)n1 (stereo not given)              NO
1  O=P1(N(CCCl)CCCl)NCCCO1 (stereo not given)              NO
2                             Cc1ccc(N)cc1N              NO
3                             CSC(C)(C)C=NO              NO
4  O=C(O)C1C(C(=O)O)C2(Cl)C(Cl)=C(Cl)C1(Cl)C2(Cl)Cl (stereo not given)              NO

Alright, here's another compound for you.
q: Hi, sorry to bother you, what did the test record for "O=C(O)C(Cl)Cl" ?
a: NO

====

Test: Tanguay_ZF_120hpf_PIG_legacy: (Legacy) Oregon State University Tanguay Lab 120 Hour Post-fertilization zebrafish Assay for Pigmentation Malformation (AID 2283650);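 further: dechorionated Tropical 5D zebrafish embryos exposed singly from 6 to 120 hpf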
Protocol: Tanguay_ZF_120hpf_legacy is a whole embryo, multiplexed endpoint assay using zebrafish larvae exposed for 120 hours post fertilization on a 96-well plate.Tanguay_ZF_120hpf_PIG_legacy is one of one assay component(s) measured or calculated from the Tanguay_ZF_120hpf_legacy assay. […] This assay endpoint, Tanguay_ZF_120hpf_PIG_legacy, was analyzed in the positive analysis fitting direction relative to DMSO as the negative control and baseline of activity. […]
Records with an inconclusive call do not appear. Active and inactive are the calls of the source. The calls were made as follows: active = hit-call score of the fitted dose curve at least 0.9, where 1 is the maximum; inconclusive = response in the unintended direction; inactive = score below 0.9.
Could you please pick one outcome from this set? class 1 for active, class 0 for inactive

Check out these entries, answers already filled in.
In [3]: df
Out[3]:
               compound  classification
0          CN(C)C(=O)Cl         class 0
1    CC(C)(C)OOC(C)(C)C         class 0
2  CCC(C)(C)c1ccc(O)cc1         class 1

q: Hi, sorry to bother you, what did the test record for OCC1CO1 (stereo not given) ?
a: class 0

q: Hi, sorry to bother you, what did the test record for "CCOC(=O)c1ccccc1C(=O)OCC" ?
a: class 0

q: Hi, sorry to bother you, what did the test record for "ClC(Cl)(Cl)c1ccccc1" ?
a: class 0

q: Hi, sorry to bother you, what did the test record for "c1ccc2c(c1)Nc1ccccc1S2" ?
a: class 0

q: Hi, sorry to bother you, what did the test record for "CCOc1ccc(C(C)(C)COCc2cccc(Oc3ccccc3)c2)cc1" ?
a: class 0

q: Hi, sorry to bother you, what did the test record for "c1ccc(OP(Oc2ccccc2)Oc2ccccc2)cc1" ?
a: class 0
